Exercise: state measured pEC50 for each of the compounds provided.
experiment: ST_JUDE: Cytotoxicity using luciferase to measure ATP as an indicator of the viability of human Burkitt''s lymphoma lymphoblast cells (Raji); format: toxicity, cell-based
pEC50: −log10 of the molar value.

# example entries with known answers
# compound, pEC50
records = [
    ("CCO/C(O)=C1\\C(C)=NC2=C(C(=O)CC(c3ccc(OC)c(OC)c3)C2)C1c1cccc(Cl)c1 (configuration not stated)", "< 4.38"),
    ("CCCCCOc1ccc(N(C(C)=O)C2=C(N3CCCCC3)C(=O)c3ccccc3C2=O)cc1", 5.39),
    ("COc1cc(C2CC(=O)NC3=C2C(=O)CC(c2ccccc2Cl)C3)cc(Br)c1O (configuration not stated)", "< 4.27"),
    ("CC(C)c1ccccc1Oc1c(C(F)(F)F)oc2c(CN3CCN(C)CC3)c(O)ccc2c1=O", "< 4.68"),
    ("COC(=O)c1ccc(NC(=O)C2c3ccccc3C(=O)N(CC(C)C)C2c2cccs2)cc1 (configuration not stated)", "< 4.41"),
]

// for each compound below, give its pEC50
1. CCOC(=O)C1=C(C)N=c2s/c(=C/c3ccccc3O)c(=O)n2C1c1ccccc1 (configuration not stated)
2. Cc1ccc2c(c1)N(C)/C(=C/c1cccc[n+]1C)S2

1. < 4.44
2. 5.66

// for each compound below, give its pEC50
1. CCOC(=O)c1cnc2c(OC)cccc2c1Nc1ccc(OC)c(OC)c1
2. CCCO/C(O)=C1\C(C)=NC2=C(C(=O)CC(c3ccc(OC)cc3)C2)C1c1ccccc1Cl (configuration not stated)
3. CCCO/C(O)=C1\C(C)=NC2=C(C(=O)CC(c3ccc(OC)cc3)C2)C1c1ccccc1F (configuration not stated)

< 4.35
< 4.38
< 4.35

// for each compound below, give its pEC50
1. CCOc1ccc2nc(C)cc(Nc3ccc(Cl)cc3)c2c1
2. CCOc1ccc(N(C(C)=O)C2=C(N3CCOCC3)C(=O)c3ccccc3C2=O)cc1

1. 4.70
2. 5.34
